So I've got a bunch of compounds here, and I need their IC50 values.
biological target: hGalectin-3 (Homo sapiens, UniProt P17931); construct: made in house; experiment: Gal-3 ELISA assay (hGalectin-3 neutralization binding to asialofetuin); conditions: Table 1; read-out: hGal-3 IC50
Sequence (P17931 whole entry): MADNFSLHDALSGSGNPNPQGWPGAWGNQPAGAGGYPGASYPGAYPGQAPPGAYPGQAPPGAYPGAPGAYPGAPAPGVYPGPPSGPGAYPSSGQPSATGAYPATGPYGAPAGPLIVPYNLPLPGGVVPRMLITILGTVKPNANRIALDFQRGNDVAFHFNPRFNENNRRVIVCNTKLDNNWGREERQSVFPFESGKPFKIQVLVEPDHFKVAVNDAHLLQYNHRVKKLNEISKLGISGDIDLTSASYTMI
Numbers only, in nM.

1) O=C([C@@H]1O[C@H](CO)[C@H](O)[C@H](n2cc(-c3cccc(F)c3)nn2)[C@H]1O)N1CCN(c2ccc(O)cn2)CC1    395
2) O=C([C@@H]1O[C@H](CO)[C@H](O)[C@H](n2cc(-c3cccc(F)c3)nn2)[C@H]1O)N1CCN(c2ncc(O)cn2)CC1    850
3) COc1cc(N2CCN(C(=O)[C@@H]3O[C@H](CO)[C@H](O)[C@H](n4cc(-c5cccc(F)c5)nn4)[C@H]3O)CC2)ccc1O    360
4) O=C([C@@H]1O[C@H](CO)[C@H](O)[C@H](n2cc(-c3cccc(F)c3)nn2)[C@H]1O)N1CCN(c2ccc3[nH]ccc3c2)CC1    480

Turning now to a further record.
What does the record list as IC50 for Cn1ccc2cc(N3CCN(C(=O)[C@@H]4O[C@H](CO)[C@H](O)[C@H](n5cc(-c6cccc(F)c6)nn5)[C@H]4O)CC3)ccc21 ?
420

These measurements were taken from patent US12286424B2.
